# Target System: human orexin type 2 receptor (Homo sapiens, UniProt O43614)
# Construct: expressed in transfected cells
# Sequence (O43614 whole entry): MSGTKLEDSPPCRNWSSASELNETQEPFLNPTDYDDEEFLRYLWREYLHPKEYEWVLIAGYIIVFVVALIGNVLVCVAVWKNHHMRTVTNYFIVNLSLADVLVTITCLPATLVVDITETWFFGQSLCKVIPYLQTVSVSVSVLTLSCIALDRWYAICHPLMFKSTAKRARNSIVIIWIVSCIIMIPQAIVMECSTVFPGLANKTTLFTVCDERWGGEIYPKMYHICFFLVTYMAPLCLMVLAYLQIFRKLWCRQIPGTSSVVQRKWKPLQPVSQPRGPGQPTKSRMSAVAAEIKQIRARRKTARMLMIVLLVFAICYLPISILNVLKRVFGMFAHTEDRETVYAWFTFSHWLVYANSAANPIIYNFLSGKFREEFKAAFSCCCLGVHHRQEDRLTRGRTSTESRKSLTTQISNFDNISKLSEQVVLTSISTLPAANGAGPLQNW
# Test Protocol: Measurement of orexin type 2 receptor agonist activity (calcium fluorescence, Fluo-4 AM, FDSS) in CHO cells forcibly expressing human OX2 receptor
# Format: cell-based
# Assay Context: test compound 3 μM, DMSO = 0%, orexin A (human) 10 nM = 100%
Experimental Endpoint: 0X2R agonist activity (3 μM, %)

Compound	0X2R agonist activity (3 μM, %)
CCS(=O)(=O)N[C@H]1CCc2ncn(C(C)C)c(=O)c2[C@H]1Cc1cccc(-c2cccc(C)c2F)c1 (racemic)	100
CC(C)n1cnc2c(c1=O)[C@@H](Cc1cccc(-c3ccccc3F)c1F)[C@@H](NS(=O)(=O)C1(F)CC1)CC2	95
COc1ccc2n(c1=O)[C@@H](Cc1cccc(-c3ccccc3)c1)[C@@H](NS(C)(=O)=O)CC2 (racemic)	105
CCn1ccc2c(c1=O)[C@@H](Cc1cccc(-c3cccc(C)c3)c1F)[C@@H](NS(C)(=O)=O)CC2 (racemic)	101
CC(C)n1cnc2c(c1=O)C(Cc1cccc(-c3cccc(F)c3F)c1)C(NS(=O)(=O)C1(F)CC1)CC2 (stereo not drawn)	90
Cc1ccc2n(c1=O)[C@@H](Cc1csc(-c3cccc(F)c3)n1)[C@@H](NS(C)(=O)=O)CC2 (racemic)	100
